meta.source: paper PMC9864848

Quick reference for Quenching constant KSV among some molecules
Biological target: XO (Bos taurus, UniProt P80457)
Construct: purchased Roche Diagnostics (Mannheim, Germany)
Sequence (P80457 whole entry): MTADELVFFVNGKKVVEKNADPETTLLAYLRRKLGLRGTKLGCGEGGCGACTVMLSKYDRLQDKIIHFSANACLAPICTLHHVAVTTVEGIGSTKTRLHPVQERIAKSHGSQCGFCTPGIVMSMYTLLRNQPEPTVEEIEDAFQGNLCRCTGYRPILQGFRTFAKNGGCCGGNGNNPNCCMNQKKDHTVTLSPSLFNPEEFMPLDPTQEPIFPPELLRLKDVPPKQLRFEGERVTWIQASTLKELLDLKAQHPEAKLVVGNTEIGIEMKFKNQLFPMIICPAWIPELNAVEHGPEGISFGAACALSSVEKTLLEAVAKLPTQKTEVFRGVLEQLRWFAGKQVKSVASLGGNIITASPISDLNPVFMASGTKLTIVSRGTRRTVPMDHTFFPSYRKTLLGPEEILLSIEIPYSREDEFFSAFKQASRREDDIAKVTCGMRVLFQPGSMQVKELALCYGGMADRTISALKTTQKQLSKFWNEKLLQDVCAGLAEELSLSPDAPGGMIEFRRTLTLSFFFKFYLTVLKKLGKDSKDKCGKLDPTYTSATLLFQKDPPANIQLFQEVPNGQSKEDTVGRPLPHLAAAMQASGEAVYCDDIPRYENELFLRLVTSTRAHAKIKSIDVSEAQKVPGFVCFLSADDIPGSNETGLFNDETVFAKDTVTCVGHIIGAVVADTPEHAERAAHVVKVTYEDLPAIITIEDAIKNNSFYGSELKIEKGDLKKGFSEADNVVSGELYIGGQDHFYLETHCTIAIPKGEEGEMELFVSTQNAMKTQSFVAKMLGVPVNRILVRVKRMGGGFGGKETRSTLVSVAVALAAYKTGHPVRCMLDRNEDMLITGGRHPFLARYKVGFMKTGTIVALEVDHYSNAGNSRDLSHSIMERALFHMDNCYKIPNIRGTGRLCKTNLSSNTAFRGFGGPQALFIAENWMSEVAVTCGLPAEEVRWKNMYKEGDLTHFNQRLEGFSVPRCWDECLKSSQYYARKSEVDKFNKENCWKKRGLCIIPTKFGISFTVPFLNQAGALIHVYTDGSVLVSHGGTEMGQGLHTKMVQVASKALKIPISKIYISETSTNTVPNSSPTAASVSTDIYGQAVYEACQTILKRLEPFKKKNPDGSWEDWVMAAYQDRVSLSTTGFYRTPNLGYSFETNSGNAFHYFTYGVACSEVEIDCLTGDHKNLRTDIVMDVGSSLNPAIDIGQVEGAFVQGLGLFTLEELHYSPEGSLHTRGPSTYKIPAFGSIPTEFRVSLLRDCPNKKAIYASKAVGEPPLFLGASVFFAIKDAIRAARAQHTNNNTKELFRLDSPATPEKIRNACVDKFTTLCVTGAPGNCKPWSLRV
Experiment: Fluorescence quenching assay of XO
Assay type: binding, Bovine
Conditions: 298 K, pH 7.5
// return numeric value only (unit: L/mol, not printed)

Please review the entries below; each comes with its answer.
[[record]]
molecule = "O=c1cc(-c2ccc(O)cc2)oc2cc(O)cc(O)c12 [Apigenin, apigenin]"
test_value = 130200

[[record]]
molecule = "O=C(O)/C=C/c1ccccc1 [Trans-cinnamic acid, trans-cinnamic acid]"
test_value = 180000

[[record]]
molecule = "COc1cc(CC(=O)O)ccc1O [Homovanillic acid, homovanillic acid]"
test_value = 49100


// below: Quenching constant KSV requested for another molecule
Report Quenching constant KSV for O=c1c(O)c(-c2ccc(O)cc2)oc2cc(O)cc(O)c12 [Kaempferol, kaempferol] 97700
